These measurements were taken from patent US20210032312A1.

TARGET_ENTITY: T1, human CD8 alpha (CD8A) on primary human CD8+ T cells (human, UniProt P01732 22-235)
T1 construct: whole, on cells; also called hCD8A
MEASUREMENT_NOTES: flow cytometry, human CD8+ T cells, 0.2 uM FN3
MEASURE: Human T-cell Binding 0.2 uM (MFI)

INSERT INTO assay_data (binder, value_reported) VALUES
  ('P282DR9P1359_E8 (designed binder, FN3 domain) LPAPKNLVVSRVTEDSARLSWTAPDAAFDSFQIAYPEWPVIGEAIVLTVPGSERSYDLTGLKPGTEYWVIIQGVKGGYTSWPLSAIFTT', 2920),
  ('P282BR9P1357_H3 (designed binder, FN3 domain) LPAPKNLVVSRVTEDSARLSWKKREYQDPGFDSFLIQYQESEKVGEAIVLTVPGSERSYDLTGLKPGTEYTVSIYGVDVKWEGNRPVASNPLSAIFTT', 3030),
  ('P282ER9P1360_D11 (designed binder, FN3 domain) LPAPKNLVVSRVTEDSARLSWTAPDAAFDSFGILYYEPVDSGEAITLPVPGSERSYDLTGLKPGTEYFVIIVGVKGGYPSIPLGAAFTT', 3210),
  ('P282AR9P1356_A10 (designed binder, FN3 domain) LPAPKNLVVSRVTEDSARLSWHTATNSFDSFLIQYQESEKVGEAIVLTVPGSERSYDLTGLKPGTEYTVSIYGVDVDYNPTGRPVSSNPLSAIFTT', 2090);
